Where do the numbers come from? From PubChem BioAssay (NCI).

For each record, write down the corresponding TGI.
- System: A549 NSCLC
- assay: NCI tumour cell line growth inhibition, 48 h
*1 amine or outer side, *2 acyl side, *3 side chain or, on linkers, in order; H or OH if unused. Where a SMILES comes first, the peptide text is derived from it. [ ]: non-standard residue; d: D form. The star is where a group is joined. X31 = CC(=O)N(C)SCC(N[*:1])C(=O)[*:2]; X47 = CC(=O)N(C)SCC(N*)/C(O)=N\O; Cbz = O=C(OCc1ccccc1)*; Bn = c1ccc(C*)cc1; For = O=C*

Request: What measured TGI goes with C=C(C)C(=O)O[C@H]1C/C(CO)=C/CCC(=C)C(OC(C)=O)[C@H]2OC(=O)C(=C)[C@H]12 (stereo partly drawn) ?
Response: 55.8 µM

Request: Next entry: O=C(Nc1ccccc1-c1n[nH]c(=S)[nH]c1=O)C(F)(F)F
Response: > 100 µM

Request: Next entry: CS(=O)(=O)c1ccc(/C=N/NC(N)=S)cc1
Response: > 100 µM

Request: Next entry: CC1(C)CC23C4COC(=O)C2CCC1C3CC4=O (stereo not drawn)
Response: 70.3 µM

Request: Next entry: C=CCOC(=O)N1[C@H]2C#C/C=C\C#C[C@]3(O)C(=O)C[C@H](C)[C@]24O[C@]43C2=CC(=O)C=CC21OC (stereo partly drawn)
Response: > 100 µM

Request: Next entry: NCCNc1c2c(c(NCCN)c3c(CO)c[nH]c13)C(=O)c1ccccc1C2=O
Response: > 100 µM

Request: Next entry: CCNC(=O)[C@@H]1CCCN2C(=O)CC[C@H](NC(=O)[C@H](Cc3ccc(OP(=O)(O)O)cc3)NC(C)=O)C(=O)N12
Response: > 25 µM

Request: Next entry: CCOC(=O)CN1C(=O)c2c(c(C)n(-c3ccccc3)c2C)C1=O
Response: > 100 µM

Request: Next entry: CCSCC1CC(O)(c2ccccc2)C(c2ccccc2)C(c2ccc(Cl)cc2)O1 (stereo not drawn)
Response: 3.63 µM

Request: Next entry: O=C(O)CCNc1ccccc1C(=O)O
Response: > 100 µM

Request: Next entry: CN1C(=O)CC(c2cccc(C3CC(=O)N(C)C3=O)n2)C1=O (stereo not drawn)
Response: > 100 µM

Request: Next entry: CC12CCC3C(CCC4Cc5[nH]c6ccccc6c5CC43C)C1CCC2O (stereo not drawn)
Response: > 100 µM

Request: Next entry: O=C(O)c1cc2ccccc2c(N=Nc2ccccc2)c1O
Response: 40.1 µM

Request: Next entry: COC(=O)CCc1cc(OC)c(O)c(C(Cc2ccc(OC)c(OC)c2)C(=O)OC)c1 (stereo not drawn)
Response: > 100 µM

Request: Next entry: Nc1ncnc2c1ncn2C1OC(COP(=O)(O)O)C(O)C1O (stereo not drawn)
Response: > 50 µM

Request: Next entry: O=C(Nc1ccc(Cl)cc1Cl)C1C(=O)N(c2ccc(Cl)cc2Cl)C(=O)/C1=N\Nc1ccc([N+](=O)[O-])cc1[N+](=O)[O-] (stereo not drawn)
Response: > 100 µM

Request: Next entry: CC(=O)N(C)SCC(NC(=O)C(Cc1ccccc1)NC(=O)OCc1ccccc1)C(=O)NC(Cc1ccccc1)C(=O)NC(Cc1cn(C=O)c2ccccc12)C(=O)NC(CCCCNC(=O)OCc1ccccc1)C(=O)NC(C(=O)NC(CSN(C)C(C)=O)/C(O)=N\O)C(C)OCc1ccccc1 (stereo not drawn) (Cbz-F[X31]FW(For)K(Cbz)T(Bn)-X47; configuration not given here)
Response: > 100 µM

Request: Next entry: Fc1ccc2[nH]cc(-c3nc(-c4c[nH]c5ncccc45)cs3)c2c1
Response: > 100 µM

---

- System: LOX IMVI melanoma
- assay: NCI tumour cell line growth inhibition, 48 h
measured parameter: GI50

Request: What measured GI50 goes with CC(=O)NCCc1c2c(c3nccc4c3c1Nc1ccccc1-4)OCS2 ?
Response: 1260 nM

Request: Next entry: CC1(C)N=C(N)N=C(N)N1c1cccc(CCCCc2cccc(S(=O)(=O)F)c2)c1
Response: 424 nM

Request: Next entry: CCSCC1CC(O)(c2ccccc2)C(c2ccccc2)C(c2ccc(Cl)cc2)O1 (stereo unspecified)
Response: 1650 nM

Request: Next entry: COc1cc(C(=O)/C=C/c2c(C)n([O-])c3ccc(C)cc3[n+]2=O)cc(OC)c1OC
Response: 2110 nM

Request: Next entry: Nc1ccc2c(c1)C(=O)C(=O)c1c-2nc2ccccn12
Response: 327 nM

Request: Next entry: COc1cc(C2c3[nH]c4ccccc4c3C[C@H]3COC(=O)N23)cc(OC)c1OC (stereo partly specified)
Response: < 10 nM

---

- Tested on: HCT-15 colon
- assay: NCI tumour cell line growth inhibition, 48 h
For each record, write down the corresponding TGI.
Reply with just the number (in µM).

Request: What measured TGI goes with CN(C)CCOc1cccc2c1C(=O)c1ccccc1C2=O ?
Response: 27.3

Request: Next entry: CC(C)/C=C1\CCC(CN2CCCC2)C1=O (centres undefined)
Response: 18.3

Request: Next entry: COc1cc2c(cc1O)CC[C@@H]1[C@@H]2CC[C@]2(C)[C@@H](NCCN(C)C)CC[C@@H]12
Response: 0.454

Request: Next entry: O=C(Nc1nnc(-c2ccccc2)o1)C(SC(=S)N1CCCCC1)c1ccccc1 (centres undefined)
Response: 29.1

Request: Next entry: O=C[C@@H](CO)O[C@H](C=O)c1c[nH]c(=O)[nH]c1=O
Response: 327

---

- System: OVCAR-4 ovarian
- assay: NCI tumour cell line growth inhibition, 48 h
measured parameter: TGI (µM)
Reply with just the number (in µM).

Request: What measured TGI goes with OC(c1cccc(-n2ccc(C(F)(F)F)n2)c1)c1cnccc1NC1CCCCCC1 (stereo not given) ?
Response: 3.07

Request: Next entry: CC(=O)NCCc1c2c(c3nccc4c3c1Nc1ccccc1-4)OCS2
Response: 6.02

---

- System: CAKI-1 renal
- assay: NCI tumour cell line growth inhibition, 48 h
measured parameter: GI50

Request: What measured GI50 goes with Cc1ccc([N+](=O)[O-])cc1NC(=O)Nc1cccc(F)c1 ?
Response: 3.35 µM

Request: Next entry: Cc1cccc(NC(=O)CCc2ccc(N3C(N)=NC(N)=NC3(C)C)cc2)c1
Response: 97.3 µM

Request: Next entry: C=C1C(=O)O[C@H]2[C@H]1CC/C(CNC(=O)Cc1c[nH]c3ccccc13)=C\CC[C@@]1(C)O[C@@H]21
Response: 4.77 µM

Request: Next entry: CN=C(N)N/N=C(\C)c1ccc2c(c1)Cc1cc(/C(C)=N/NC(N)=NC)ccc1-2
Response: 2.07 µM

Request: Next entry: COc1cc(NS(C)(=O)=O)ccc1Nc1c2ccc([N+](=O)[O-])cc2nc2c(C)cccc12
Response: 1.13 µM

Request: Next entry: CCNC(=O)[C@@H]1CCCN2C(=O)CC[C@H](NC(=O)[C@H](Cc3ccc(OP(=O)(O)O)cc3)NC(C)=O)C(=O)N12
Response: > 25 µM

Request: Next entry: N=C(N)c1ccc(OCc2cccc(COc3ccc(C(=N)N)cc3)c2)cc1
Response: 11.4 µM

Request: Next entry: COc1cc2c(cc1O)CC[C@@H]1[C@@H]2CC[C@]2(C)[C@@H](NCCN(C)C)CC[C@@H]12
Response: 0.464 µM

Request: Next entry: F
Response: 3220 µM

Request: Next entry: O=C(NC1CCN(Cc2ccccc2)CC1)c1cc(-c2ccncc2)nc2ccc(Cl)cc12
Response: 5.43 µM

Request: Next entry: CCSCC1CC(O)(c2ccccc2)C(c2ccccc2)C(c2ccc(Cl)cc2)O1 (configuration not stated)
Response: 1.49 µM

Request: Next entry: CCCCON(OC(=O)c1ccccc1)C(=O)c1ccccc1
Response: > 100 µM

---

- Tested on: SK-MEL-5 melanoma
- assay: NCI tumour cell line growth inhibition, 48 h; in the data active = GI50 below about 0.43 µM; inactive = the rest
Classes to choose from: 1.0 = active, 0.0 = inactive

Request: Outcome logged for O=C(NC1CCN(Cc2ccccc2)CC1)c1cc(-c2ccncc2)nc2ccc(Cl)cc12 in this assay:
Response: 0.0

Request: Next entry: F
Response: 0.0

Request: Next entry: OC(c1cccc(-n2ccc(C(F)(F)F)n2)c1)c1cnccc1NC1CCCCCC1 (configuration not stated)
Response: 0.0

Request: Next entry: CC(=O)NCCc1c2c(c3nccc4c3c1Nc1ccccc1-4)OCS2
Response: 0.0

Request: Next entry: COC(=O)CCC(=O)C(=O)OC
Response: 0.0

Request: Next entry: Cc1ccc2c(c1)C(C)Cc1c(ncnc1-n1cnc3ccccc31)N2C (configuration not stated)
Response: 0.0

Request: Next entry: COc1cc2c(cc1O)CC[C@@H]1[C@@H]2CC[C@]2(C)[C@@H](NCCN(C)C)CC[C@@H]12
Response: 1.0
